Data origin: PubChem BioAssay AID1963839

Test system: 817829-284-R-J1-PDC complex spheroid viability
Test: Anticancer human tumor 817829-284-R-J1-PDC patient-derived colon adenocarcinoma cell line growth inhibition [POLQ]; active = viability on the fitted dose curve at most 10% of control; inactive = the rest
Details: second compound 0.316 µM; first compound 3.16 µM
The reply should be one of these categories: 1 = active, -1 = inactive

// return assay outcome for CNCc1ccc(-c2[nH]c3cc(F)cc4c3c2CCNC4=O)cc1 + Nc1ccc(C#CCN(C(=O)Cc2ncc(C(F)(F)F)cc2C(F)(F)F)c2ccc(F)cc2)nn1
-1

# repeat for CC(C)n1c(=O)n(C)c2cnc3cc(F)c(-c4ccc(OCCCN5CCCCC5)nc4)cc3c21 + Nc1ccc(C#CCN(C(=O)Cc2ncc(C(F)(F)F)cc2C(F)(F)F)c2ccc(F)cc2)nn1
-1

Field entry: CCc1cc2c(N3CCc4c(cc(Cn5ccnc5)cc4-c4cn(C)nc4C(F)(F)F)C3=O)cc(C)nc2c(OC)n1 + Cc1cccc(N(C)C(=O)C2C(O)CCN2c2nc(C)cc(C(F)(F)F)c2C#N)c1
-1

// next record CCc1cc2c(N3CCc4c(cc(Cn5ccnc5)cc4-c4cn(C)nc4C(F)(F)F)C3=O)ccnc2c(OC)n1 + Nc1ccc(C#CCN(C(=O)Cc2ncc(C(F)(F)F)cc2C(F)(F)F)c2ccc(F)cc2)nn1
-1

Try the compound COc1cc(C2c3cc4c(cc3C(OC3OC5COC(C)OC5C(O)C3O)C3COC(=O)C23)OCO4)cc(OC)c1O (stereo not drawn) + COC1C(OC(N)=O)C(O)C(Oc2ccc3c(O)c(NC(=O)c4ccc(O)c(CC=C(C)C)c4)c(=O)oc3c2C)OC1(C)C
1

Input COc1cc(C2c3cc4c(cc3C(OC3OC5COC(C)OC5C(O)C3O)C3COC(=O)C23)OCO4)cc(OC)c1O (stereo not drawn) + Cc1cccc(N(C)C(=O)C2C(O)CCN2c2nc(C)cc(C(F)(F)F)c2C#N)c1
-1

Another compound: CC1COCCN1c1cc(C2(S(C)(=N)=O)CC2)nc(-c2ccnc3[nH]ccc23)n1 (stereo not drawn) + Nc1ccc(C#CCN(C(=O)Cc2ncc(C(F)(F)F)cc2C(F)(F)F)c2ccc(F)cc2)nn1
1

Now the compound C=CC(=O)N1CCN(c2nc(=O)n(-c3c(C)ccnc3C(C)C)c3nc(-c4c(O)cccc4F)c(F)cc23)C(C)C1 (stereo not drawn) + Nc1ccc(C#CCN(C(=O)Cc2ncc(C(F)(F)F)cc2C(F)(F)F)c2ccc(F)cc2)nn1
-1

---

Tested on: 817829-284-R-J1-PDC complex spheroid viability
Experiment: Anticancer human tumor 817829-284-R-J1-PDC cell line growth inhibition [POLQ];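 also: spheroids exposed to compounds for 7 days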
Details: curve of first compound; second compound 0.0316 µM
Protocol: Multicellular complex tumor spheroid response to Polymerase (POL) inhibitors (novobiocin, ART-558, RP6685) in combination with a variety of drugs and investigational agents in selected tumor cell lines The POL inhibitors (novobiocin, ART-558, and RP6685) were evaluated both individually and in combination with standard of care and investigational anticancer small molecules within a complex spheroid model of solid tumors. . […]
assay metric: IC50

Given the entry CC1COCCN1c1cc(-c2ccnn2C)c2ccnc(-c3ccn[nH]3)c2n1 (stereo not drawn) + COC1C(OC(N)=O)C(O)C(Oc2ccc3c(O)c(NC(=O)c4ccc(O)c(CC=C(C)C)c4)c(=O)oc3c2C)OC1(C)C , report its measured IC50.
< 0.0316 µM

Next record, please: CCc1c2c(nc3ccc(O)cc13)-c1cc3c(c(=O)n1C2)COC(=O)[C@]3(O)CC + Cc1cccc(N(C)C(=O)C2C(O)CCN2c2nc(C)cc(C(F)(F)F)c2C#N)c1
< 0.00316 µM

How about this compound: CC1COCCN1c1cc(-c2ccnn2C)c2ccnc(-c3ccn[nH]3)c2n1 (stereo not drawn) + Cc1cccc(N(C)C(=O)C2C(O)CCN2c2nc(C)cc(C(F)(F)F)c2C#N)c1
< 0.0316 µM
